Target: full-length human BTK (Homo sapiens)
Construct: 2.5× stocks of full-length human BTK (08-080); purchased CarnaBio USA, Inc., Natick, Mass; 08-080
Sequence (Q06187 whole entry): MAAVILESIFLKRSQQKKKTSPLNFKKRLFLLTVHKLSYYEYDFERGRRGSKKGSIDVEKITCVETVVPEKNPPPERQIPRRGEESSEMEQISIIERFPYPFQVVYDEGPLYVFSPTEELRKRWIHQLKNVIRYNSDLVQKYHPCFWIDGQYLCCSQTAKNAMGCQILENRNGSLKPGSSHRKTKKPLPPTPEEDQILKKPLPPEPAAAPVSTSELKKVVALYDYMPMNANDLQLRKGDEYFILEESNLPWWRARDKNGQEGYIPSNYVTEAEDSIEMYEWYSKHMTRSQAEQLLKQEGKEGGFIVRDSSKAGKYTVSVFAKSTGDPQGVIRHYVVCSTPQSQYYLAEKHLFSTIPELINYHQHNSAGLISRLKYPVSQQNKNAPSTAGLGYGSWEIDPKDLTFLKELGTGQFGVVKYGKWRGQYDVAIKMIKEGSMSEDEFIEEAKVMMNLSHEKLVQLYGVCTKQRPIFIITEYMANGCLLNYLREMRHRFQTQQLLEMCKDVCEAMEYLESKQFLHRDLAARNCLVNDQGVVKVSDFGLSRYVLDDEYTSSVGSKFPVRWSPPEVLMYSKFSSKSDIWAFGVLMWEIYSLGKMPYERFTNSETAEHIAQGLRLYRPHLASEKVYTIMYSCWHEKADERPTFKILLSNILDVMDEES
Assay: Assay A: BTK IC50 Enzyme Assay (microfluidic off-chip mobility shift kinase assay)
Type: biochemical
Settings: full-length human BTK, kinKDR peptide substrate, incubated 90 min at 27 C; read-out: Assay A (Time Dependent BTK Enzyme Assay IC50)
# IC50 values compiled below
assayEndpoint: IC50

{"columns": ["compoundSmiles", "systemUnderTest", "recordedResult"],
 "data": [
  ["C=CC(=O)N[C@H]1CCN(c2ccc(C(N)=O)c(Nc3cncc(F)c3)n2)C1", "full-length human BTK (Homo sapiens)", "< 100 nM"],
  ["C=CC(=O)N[C@H]1CCN(c2ccc(C(N)=O)c(Nc3ccc(F)c(C)c3)n2)C1", "full-length human BTK (Homo sapiens)", "100 to 1000 nM"],
  ["C=CC(=O)N[C@H]1CCN(c2ncnc(C(N)=O)c2Cl)C1", "full-length human BTK (Homo sapiens)", "> 5000 nM"]
]}
